- system-name: UniProtKB P11387
- Sequence (P11387 whole entry): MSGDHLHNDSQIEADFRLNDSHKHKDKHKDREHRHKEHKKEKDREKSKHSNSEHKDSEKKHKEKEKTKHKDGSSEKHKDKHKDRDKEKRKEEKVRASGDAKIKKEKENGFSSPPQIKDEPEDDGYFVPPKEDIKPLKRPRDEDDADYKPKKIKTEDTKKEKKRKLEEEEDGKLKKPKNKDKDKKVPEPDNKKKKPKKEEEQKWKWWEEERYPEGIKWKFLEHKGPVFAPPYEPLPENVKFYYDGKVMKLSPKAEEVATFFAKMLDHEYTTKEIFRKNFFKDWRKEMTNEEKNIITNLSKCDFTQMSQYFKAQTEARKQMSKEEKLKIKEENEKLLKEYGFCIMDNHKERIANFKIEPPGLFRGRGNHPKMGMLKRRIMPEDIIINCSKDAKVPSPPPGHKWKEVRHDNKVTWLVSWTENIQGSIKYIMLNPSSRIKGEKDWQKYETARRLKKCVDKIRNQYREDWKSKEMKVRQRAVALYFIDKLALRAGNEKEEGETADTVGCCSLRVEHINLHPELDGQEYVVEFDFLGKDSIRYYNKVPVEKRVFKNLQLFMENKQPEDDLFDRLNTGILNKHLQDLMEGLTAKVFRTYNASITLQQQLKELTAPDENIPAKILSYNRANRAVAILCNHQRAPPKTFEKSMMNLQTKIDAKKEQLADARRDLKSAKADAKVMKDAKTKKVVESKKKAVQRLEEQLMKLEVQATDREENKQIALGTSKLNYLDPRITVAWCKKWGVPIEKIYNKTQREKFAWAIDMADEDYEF
- method-notes: Inhibition of topoisomerase 1 (unknown origin) assessed as relaxation of supercoiled plasmid pBR322 DNA at 1 uM incubated for 45 mins by ethidium bromide staining based agarose gel electrophoresis
readout-name: inhibition (%)
Record the value in %, omitting the unit from your answer.

1) Cc1c(Cl)cccc1Nc1ccccc1C(=O)Nc1ccc(N2CCN(C)CC2)cc1 : 25.4
2) Cc1c(Cl)cccc1Nc1ccccc1C(=O)Nc1ccc(N2CCN(c3ccccc3)CC2)cc1 : 12.6
3) Cc1c(Cl)cccc1Nc1ccccc1C(=O)Nc1ccc(N2CCNCC2)cc1 : 53.2
4) Cc1c(Cl)cccc1Nc1ccccc1C(=O)Nc1ccc(N2CCN(S(C)(=O)=O)CC2)cc1 : 19.5

Moving on to the next compound.
Dear colleague, please send me the reported inhibition for COCCOc1ccc(NC(=O)c2ccccc2Nc2cccc(Cl)c2C)cc1 when you can.
25

====

- method-notes: AUC (0-t) in Sprague-Dawley rat at 30 mg/kg, po and measured upto 12 hrs by LC-MS analysis
- Assay type: ADME, organism-based
- Design: dose 30 mg/kg, time < 12 hrs, route po
- particulars: in vivo
readout-name: AUC(0-t) at 12 h (ng·h/mL)
Form entry: value (ng·h/mL) — number only.

Supply AUC(0-t) at 12 h value. Item: Cc1c(Cl)cccc1Nc1ccccc1C(=O)Nc1ccc(N2CCNCC2)cc1
5410

====

- method-notes: AUC (0-t) in Sprague-Dawley rat at 100 mg/kg, po and measured upto 24 hrs by LC-MS analysis
- Type: ADME, organism-based
- Parameters: dose 100 mg/kg, time < 24 hrs, route po
- particulars: in vivo
readout-name: AUC(0-t) at 24 h (ng·h/mL)
Provide the reading as a plain figure in ng·h/mL.

For the molecule Cc1c(Cl)cccc1Nc1ccccc1C(=O)Nc1ccc(N2CCNCC2)cc1 , give its reported AUC(0-t) at 24 h.
24800

====

- method-notes: Half life in Sprague-Dawley rat at 30 mg/kg, po and measured upto 12 hrs by LC-MS analysis
- Assay type: ADME, organism-based
- particulars: in vivo
readout-name: half-life

Please report half-life for the following compound: Cc1c(Cl)cccc1Nc1ccccc1C(=O)Nc1ccc(N2CCNCC2)cc1
256 min

====

- system-name: Prostaglandin G/H synthase 2 (Homo sapiens)
- method-notes: Inhibition of COX-2 (unknown origin) at 3 uM
readout-name: inhibition (%)
Write it as a number; the unit % goes unstated.

Some compounds with recorded inhibition:
1) Cc1c(Cl)cccc1Nc1ccccc1C(=O)Nc1ccc(NCCO)cc1 : 69
2) Cc1c(Cl)cccc1Nc1ccccc1C(=O)Nc1ccc(N2CCN(S(C)(=O)=O)CC2)cc1 : 24.5
3) Cc1c(Cl)cccc1Nc1ccccc1C(=O)Nc1ccc(OCCO)cc1 : 22.6
4) CC(=O)N1CCN(c2ccc(NC(=O)c3ccccc3Nc3cccc(Cl)c3C)cc2)CC1 : 37.6
5) COCC(=O)Oc1ccc(NC(=O)c2ccccc2Nc2cccc(Cl)c2C)cc1 : 25.2
6) COCCOc1ccc(NC(=O)c2ccccc2Nc2cccc(Cl)c2C)cc1 : 31.7

Print Prostaglandin G/H synthase 2 (Homo sapiens) inhibition for Cc1c(Cl)cccc1Nc1ccccc1C(=O)Nc1ccc(OCCN)cc1 .
28.7

Jot down inhibition (Prostaglandin G/H synthase 2 (Homo sapiens)) of Cc1c(Cl)cccc1Nc1ccccc1C(=O)Nc1ccc(N2CCN(C(C)C)CC2)cc1 .
30.1

Look up and report inhibition, with Prostaglandin G/H synthase 2 (Homo sapiens) as system, for Cc1c(Cl)cccc1Nc1ccccc1C(=O)Nc1ccc(N2CCN(C(=O)OC(C)(C)C)CC2)cc1
18.9

Quote inhibition with test system Prostaglandin G/H synthase 2 (Homo sapiens) for Cc1c(Cl)cccc1Nc1ccccc1C(=O)Nc1ccc(N2CCNCC2)cc1
74.2
